For each entry below, report its log10 IC50 value.
# Tested on: MOLM-13
# test-protocol: Growth inhibition of human MOLM13 cells after 96 hrs by CCK8 assay
# Assay type: functional, cell-based
# settings: MOLM-13, 96 h
# log10 transformed; quantity=IC50; unit=pM

compound	quantitative-readout
Cc1nnc2n1Cc1sc(C#Cc3cnn(CCCNc4cccc5c4C(=O)N(C4CCC(=O)NC4=O)C5=O)c3)c(Cc3ccccc3)c1OC2 (configuration not stated)	2.75

Answer for every listed entry: what is its log10 IC50? The entries follow.
1. Cc1nnc2n1Cc1sc(C#Cc3cnn(CCCCNc4cccc5c4CN(C4CCC(=O)NC4=O)C5=O)c3)c(Cc3ccccc3)c1OC2 (configuration not stated)
2. Cc1nnc2n1Cc1sc(C#Cc3cnn(CCNc4cccc5c4C(=O)N(C4CCC(=O)NC4=O)C5=O)c3)c(Cc3ccccc3)c1OC2 (configuration not stated)
3. Cc1nnc2n1Cc1sc(C#Cc3cnn(CCCC#Cc4cccc5c4C(=O)N(C4CCC(=O)NC4=O)C5=O)c3)c(Cc3ccccc3)c1OC2 (configuration not stated)
4. Cc1nnc2n1Cc1sc(C#Cc3cnn(CCCCCc4cccc5c4CN(C4CCC(=O)NC4=O)C5=O)c3)c(Cc3ccccc3)c1OC2 (configuration not stated)
5. Cc1nnc2n1Cc1sc(C#Cc3cnn(CCCCNc4cccc5c4C(=O)N(C4CCC(=O)NC4=O)C5=O)c3)c(Cc3ccccc3)c1OC2 (configuration not stated)
6. Cc1nnc2n1Cc1sc(C#Cc3cnn(COc4cccc5c4C(=O)N(C4CCC(=O)NC4=O)C5=O)c3)c(Cc3ccccc3)c1OC2 (configuration not stated)

stdout:
1. 2.26
2. 3.35
3. 3.20
4. 2.72
5. 2.28
6. 5.49

Values compiled from ChEMBL document CHEMBL4382197.
